# TARGET: Gli1 (Mus musculus, UniProt P47806)
# Construct: expressed in transfected cells; host or cells: NIH-3T3
# Sequence (P47806 whole entry): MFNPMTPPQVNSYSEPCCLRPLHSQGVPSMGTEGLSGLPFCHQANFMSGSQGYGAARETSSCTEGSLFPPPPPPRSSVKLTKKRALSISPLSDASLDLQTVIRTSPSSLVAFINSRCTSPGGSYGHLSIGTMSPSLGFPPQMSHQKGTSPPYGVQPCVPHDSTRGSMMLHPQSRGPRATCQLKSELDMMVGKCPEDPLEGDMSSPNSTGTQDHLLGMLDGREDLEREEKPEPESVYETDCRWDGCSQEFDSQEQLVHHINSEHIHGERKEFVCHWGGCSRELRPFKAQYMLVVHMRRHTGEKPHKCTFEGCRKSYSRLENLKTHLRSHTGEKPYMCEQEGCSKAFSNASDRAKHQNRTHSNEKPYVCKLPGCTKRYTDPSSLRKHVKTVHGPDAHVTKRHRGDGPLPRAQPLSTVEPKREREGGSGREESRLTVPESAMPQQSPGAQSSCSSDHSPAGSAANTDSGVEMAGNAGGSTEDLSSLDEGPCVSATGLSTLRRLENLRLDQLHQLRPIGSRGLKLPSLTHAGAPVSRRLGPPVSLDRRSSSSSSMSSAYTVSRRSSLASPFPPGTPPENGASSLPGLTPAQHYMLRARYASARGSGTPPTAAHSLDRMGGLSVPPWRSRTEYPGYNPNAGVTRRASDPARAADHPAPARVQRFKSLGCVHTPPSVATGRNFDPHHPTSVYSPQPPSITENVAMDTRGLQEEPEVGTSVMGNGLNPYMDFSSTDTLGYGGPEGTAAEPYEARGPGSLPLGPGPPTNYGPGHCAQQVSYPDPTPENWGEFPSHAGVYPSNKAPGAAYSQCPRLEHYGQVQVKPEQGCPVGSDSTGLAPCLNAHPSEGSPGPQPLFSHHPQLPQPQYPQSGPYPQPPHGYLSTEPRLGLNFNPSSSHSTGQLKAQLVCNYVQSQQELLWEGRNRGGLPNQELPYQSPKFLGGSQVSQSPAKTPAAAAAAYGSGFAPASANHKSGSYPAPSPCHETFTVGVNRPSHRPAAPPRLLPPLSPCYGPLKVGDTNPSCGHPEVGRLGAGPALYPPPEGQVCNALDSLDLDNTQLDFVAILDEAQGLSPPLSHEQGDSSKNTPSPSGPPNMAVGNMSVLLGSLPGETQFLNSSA
# MEASUREMENT_DESCRIPTION: Hh pathway activation mediated by overexpression of Gli1
# Format: cell-based
# ASSAY_CONDITIONS: NIH-3T3 cells overexpressing Gli1; read-out: IC50 (uM) Gli1 Transfected or Infection
Measured IC50 by item

{"columns": ["COMPOUND", "TARGET", "REPORTED_MEASUREMENT"],
 "data": [
  ["O=S(=O)(Nc1cc(Cl)c(Cl)cc1Cl)c1ccc(F)cc1 [Compound 10]", "Gli1 (Mus musculus, UniProt P47806)", "2 µM"],
  ["CCOc1ccc(CCNc2cnnc3c(Cl)cccc23)cc1OCC [Compound 16]", "Gli1 (Mus musculus, UniProt P47806)", "> 30 µM"]
]}

For the compound O=C(Nc1nnc(S(=O)(=O)N2CCCCC2)s1)c1cccc(Br)c1 [Compound 15] , what IC50 is on record?
12 µM

Now the compound N#CC(C(=O)c1ccc(Cl)cc1Cl)=C1NC(=O)c2ccccc2N1 [Compound 18]
> 10 µM

Now the compound OCCNc1nc(N2CCN(c3ccccc3)CC2)nc2ccccc12 [Compound 11]
> 30 µM

Now the compound CCOC(=O)c1cn(-c2ccccc2)nc1-c1ccc(OC)c(OC)c1 [Compound 9]
> 30 µM

Now the compound CCOc1ccc2ncc(C(=O)c3ccc(C)cc3)c(N3CCCC3)c2c1 [Compound 14]
> 30 µM

Now the compound CC(C)(C)N(CCNS(=O)(=O)c1ccc(-c2cc(C(F)(F)F)no2)s1)Cc1ccco1 [Compound 12]
4 µM
